- experimental_system: Nuclear receptor subfamily 5 group A member 2 (Homo sapiens)
- measurement_protocol: LRH-1 (NR5A2) inverse agonists, retest, confirmation, cell-based, luminescence (AID 651613);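 also: HEK293T cells co-transfected with LRH-1 and StAR promoter luciferase reporter; 0% = vehicle wells and 100% = parental cells lacking receptor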
- reported_conditions: cell-based LRH-1 luciferase reporter, inverse agonism; at 3.6 µM; stronger effect = higher value
Recorded inhibition for the following compounds
property_label: inhibition (%)

[[record]]
compound = "CC1Cc2ccccc2N1C1=CC(=O)CC(C)(C)C1 (stereo not given)"
data_value = 55.3

[[record]]
compound = "S=C(Nc1ccccc1)Nc1ccc(OCc2ccc(Cl)cc2Cl)cc1"
data_value = 72.3

[[record]]
compound = "COC(=O)CNc1nc(-c2cccnc2)nc2ccccc12"
data_value = 44.6

[[record]]
compound = "CC(=O)Nc1cc(-c2ccccc2N(C)C)cn2c(-c3ccc(S(C)(=O)=O)cc3)cnc12"
data_value = 49.8

[[record]]
compound = "O=C(/C=C/Nc1ccccc1Br)c1ccccn1"
data_value = 42.5

[[record]]
compound = "O=C(N/N=C/c1ccc(Sc2ccccn2)o1)c1cccc([N+](=O)[O-])c1"
data_value = 44.3

[[record]]
compound = "COc1ccccc1Nc1nc(NCCCCO)nc(N2CCCC2)n1"
data_value = 30.2

[[record]]
compound = "C[C@H]1CCC/C=C/[C@@H]2C[C@H](O)C[C@H]2[C@H](O)[C@H](S(=O)c2ccc(O)cc2)CC(=O)O1 (stereo not given in full)"
data_value = 84.4

[[record]]
compound = "O=C(Nc1ccc(S(=O)(=O)N2CCOCC2)cc1)c1ccc([N+](=O)[O-])o1"
data_value = 57.5

[[record]]
compound = "CCN(C(C)=O)c1cnc(C=NNC(N)=S)c2ccccc12"
data_value = 75.7


###

- experimental_system: Nuclear receptor coactivator 1 (Homo sapiens) (UniProt Q15788)
- Sequence (Q15788 whole entry, looked up): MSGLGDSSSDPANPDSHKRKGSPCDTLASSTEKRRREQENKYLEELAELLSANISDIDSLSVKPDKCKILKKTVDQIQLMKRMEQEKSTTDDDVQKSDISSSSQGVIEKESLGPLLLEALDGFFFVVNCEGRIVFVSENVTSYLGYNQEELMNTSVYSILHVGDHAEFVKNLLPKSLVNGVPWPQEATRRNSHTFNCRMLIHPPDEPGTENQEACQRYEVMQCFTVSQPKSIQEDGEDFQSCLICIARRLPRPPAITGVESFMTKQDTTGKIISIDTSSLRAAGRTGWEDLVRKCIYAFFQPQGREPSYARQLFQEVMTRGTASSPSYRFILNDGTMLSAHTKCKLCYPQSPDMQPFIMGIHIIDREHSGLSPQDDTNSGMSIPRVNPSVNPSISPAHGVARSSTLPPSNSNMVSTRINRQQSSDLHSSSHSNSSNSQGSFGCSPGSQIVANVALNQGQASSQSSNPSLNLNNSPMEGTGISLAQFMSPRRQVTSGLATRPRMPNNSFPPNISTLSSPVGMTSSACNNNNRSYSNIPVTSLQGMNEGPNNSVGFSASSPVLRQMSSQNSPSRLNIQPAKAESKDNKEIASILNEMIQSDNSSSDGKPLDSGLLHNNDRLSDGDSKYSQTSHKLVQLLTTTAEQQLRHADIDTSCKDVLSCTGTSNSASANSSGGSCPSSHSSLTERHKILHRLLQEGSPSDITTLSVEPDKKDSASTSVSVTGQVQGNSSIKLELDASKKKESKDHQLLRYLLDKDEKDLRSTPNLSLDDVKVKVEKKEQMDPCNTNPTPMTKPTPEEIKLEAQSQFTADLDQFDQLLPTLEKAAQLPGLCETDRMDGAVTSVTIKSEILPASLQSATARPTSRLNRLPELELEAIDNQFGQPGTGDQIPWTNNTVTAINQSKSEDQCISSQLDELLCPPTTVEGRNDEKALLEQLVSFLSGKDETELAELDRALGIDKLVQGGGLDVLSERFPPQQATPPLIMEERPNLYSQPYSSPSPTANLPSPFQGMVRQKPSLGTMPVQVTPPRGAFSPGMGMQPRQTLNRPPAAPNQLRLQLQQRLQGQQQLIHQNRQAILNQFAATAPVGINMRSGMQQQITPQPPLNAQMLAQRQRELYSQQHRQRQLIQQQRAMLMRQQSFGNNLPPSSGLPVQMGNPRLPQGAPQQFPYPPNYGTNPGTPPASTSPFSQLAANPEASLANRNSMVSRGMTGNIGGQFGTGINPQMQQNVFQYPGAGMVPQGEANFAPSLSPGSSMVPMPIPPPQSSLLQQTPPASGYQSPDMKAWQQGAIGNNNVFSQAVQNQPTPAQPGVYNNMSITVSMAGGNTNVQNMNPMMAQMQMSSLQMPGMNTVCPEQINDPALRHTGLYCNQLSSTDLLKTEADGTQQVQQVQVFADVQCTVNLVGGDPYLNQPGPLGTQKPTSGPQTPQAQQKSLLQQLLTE
- measurement_protocol: SRC1 coactivator transcriptional activity inhibitors, confirmation, cell-based, luminescence, quadruplicate (AID 588820);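 also: 0% = DMSO wells and 100% = gossypol 36 µM treated wells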
- reported_conditions: HEK293 GAL4-SRC1 luciferase reporter, at 3.6 µM, stronger effect = higher value
Let's look at some molecules and their measured inhibition.
property_label: inhibition (%)

[[record]]
molecule = "Oc1c(C(Nc2nc3ccccc3s2)c2ccco2)ccc2cccnc12 (stereo not given)"
data_value = 28.4

[[record]]
molecule = "CC1CC(C)CN(c2ncnc3c2cnn3-c2ccc(Cl)cc2)C1 (stereo not given)"
data_value = -96.6

[[record]]
molecule = "O=C(Nc1ccc(Cn2cccn2)cc1)c1ccc(COc2cccc(Br)c2)cc1"
data_value = -34.7

[[record]]
molecule = "CC1(C)CC(N2CCCC2)=CC(=[N+]2CCCC2)C1"
data_value = 2.13

[[record]]
molecule = "O=C(C=P(c1ccccc1)(c1ccccc1)c1ccccc1)c1ccccc1-c1ccccc1C(=O)C=P(c1ccccc1)(c1ccccc1)c1ccccc1"
data_value = 24.4


###

inhibition values for the compounds below.
- measurement_protocol: TR-FRET optical interference artefacts, confirmation, artefact control for LEDGF/p75-dependent integration inhibitor project, biochemical, HIV-1 IN multimerization (AID 1053135);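 also: 0% = integrase with antibodies and DMSO and 100% = antibodies without integrase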
- reported_conditions: TR-FRET optical interference counterscreen, at 7.7 µM, stronger effect = higher value
The list shows a part of the results.
property_label: inhibition (%)

[[record]]
compound = "Cc1ccc(/C=C/C(=O)Nc2ccc([N+](=O)[O-])c(NC(=O)/C=C/c3ccc(C)o3)c2)o1"
data_value = -71.7

[[record]]
compound = "O=C(COC(=O)CCC(=O)c1cccs1)NCc1ccco1"
data_value = -58.1

[[record]]
compound = "Cc1ccc(C(=O)NC(=S)Nc2ccc3[nH]c(=O)[nH]c3c2)cc1C"
data_value = 19

[[record]]
compound = "Clc1ccc(C2=CSC3=Nc4cccc5cccc(c45)N23)cc1"
data_value = -8.94

[[record]]
compound = "Cc1sc2nc(SCC(=O)c3ccc(O)c(O)c3)n(Cc3ccco3)c(=O)c2c1C"
data_value = -41.9

[[record]]
compound = "O=C(NNC(=O)c1ccccc1O)c1ccccc1O"
data_value = -4.93

[[record]]
compound = "O=C(CN(C(=O)c1csnn1)c1cccc(Cl)c1)NC1CCCC1"
data_value = 2.68

[[record]]
compound = "c1ccc(C2=Nc3cccc4cccc(c34)N2)cc1"
data_value = -16.1

[[record]]
compound = "COCCn1nnnc1C(c1cc2ccc(OC)cc2[nH]c1=O)N1CCc2ccccc2C1 (stereo unspecified)"
data_value = -0.28

[[record]]
compound = "C=CCn1c2ccccc2c2nnc(SCc3[nH]c(=O)[nH]c3C(=O)CCCCC(=O)OCC)nc21"
data_value = 2.45

[[record]]
compound = "O=C1OC(/C=C/c2ccccc2)=NC/1=C/c1ccco1"
data_value = 4.71


###

- experimental_system: Bcl-2-like protein 1 (Homo sapiens) (UniProt Q07817)
- Sequence (Q07817 whole entry, looked up): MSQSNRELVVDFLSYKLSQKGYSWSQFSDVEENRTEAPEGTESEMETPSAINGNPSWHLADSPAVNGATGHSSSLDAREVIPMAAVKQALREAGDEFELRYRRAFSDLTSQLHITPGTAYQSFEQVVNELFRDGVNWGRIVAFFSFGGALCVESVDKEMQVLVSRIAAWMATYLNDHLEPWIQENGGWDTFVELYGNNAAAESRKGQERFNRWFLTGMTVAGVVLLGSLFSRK
- measurement_protocol: Bcl-xL inhibitors blocking Bim BH3 binding, confirmation, counter-screen for MCL1 inhibitor project, biochemical, fluorescence polarization (AID 2166)
- reported_conditions: GST-Bcl-xL / FITC-Bim BH3 peptide FP binding; at 10.9 µM; stronger effect = higher value
The other results are listed elsewhere or left out. Calls of active or inactive are those of the source.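 How the source made its calls: active means inhibition above a cutoff equal to the mean inhibition of all tested compounds plus 3 SD (cut at about 30% in these data); inactive means the rest.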
Listed here are compounds together with their documented inhibition.
property_label: inhibition

[[record]]
compound = "CCOC(=O)c1cc2n(c1N)-c1ccccc1C2=O"
property_label = "inhibition"
data_value = "91.1% (active)"

[[record]]
compound = "COc1ccc(N2CC(C(=O)NCCN3C(=O)S/C(=C\\c4cccnc4)C3=O)CC2=O)c(OC)c1 (configuration not stated)"
property_label = "inhibition"
data_value = "-1.58% (inactive)"

[[record]]
compound = "COCCOC(=O)c1sc(=S)n(CCOC)c1N"
property_label = "inhibition"
data_value = "85.4% (active)"

[[record]]
compound = "O=S(=O)([N-]c1nc2ccccc2nc1-[n+]1ccc(Cc2ccccc2)cc1)c1ccc(Br)s1"
property_label = "inhibition"
data_value = "33.4% (active)"

[[record]]
compound = "C=CCn1c(=S)[nH]c2scc(-c3ccco3)c2c1=O"
property_label = "inhibition"
data_value = "23.3% (inactive)"

[[record]]
compound = "C1=C(N2CCOCC2)/C(=C/c2nc3ccccc3[nH]2)CC1"
property_label = "inhibition"
data_value = "55.3% (active)"

[[record]]
compound = "Cc1cc(C)c(/C=C2\\C(=O)Nc3ccccc32)[nH]1"
property_label = "inhibition"
data_value = "147% (active)"

[[record]]
compound = "COC(=O)c1cc(OCC(=O)NC2CCCc3ccccc32)cc(C(=O)OC)c1 (configuration not stated)"
property_label = "inhibition"
data_value = "16.3% (inactive)"

[[record]]
compound = "Fc1ccc(CNc2nc3ccccc3n3nnnc23)cc1"
property_label = "inhibition"
data_value = "36.6% (active)"

[[record]]
compound = "CC/C(C)=N/Nc1nc2sc3c(c2c(=O)[nH]1)CC(C)(C)OC3"
property_label = "inhibition"
data_value = "34.7% (active)"

[[record]]
compound = "COCCN(CCOC)c1nc(N)c2c(N)nc3c(c2c1C#N)CC(=O)N3Cc1ccc(Cl)cc1"
property_label = "inhibition"
data_value = "9.48% (inactive)"

[[record]]
compound = "COc1ccc(Cl)cc1NC(=O)CCS(=O)(=O)c1ccc(Br)cc1"
property_label = "inhibition"
data_value = "6.91% (inactive)"

[[record]]
compound = "Nc1cccc2c1C(=O)N(Cc1nnc(-c3ccccc3Br)o1)C2=O"
property_label = "inhibition"
data_value = "51.2% (active)"

[[record]]
compound = "O=c1ccc2c(-c3ccccc3S(=O)(=O)O)c3ccc(O)c(O)c3oc-2c1O"
property_label = "inhibition"
data_value = "82.9% (active)"

[[record]]
compound = "Cn1c2ccccc2c(=O)c2c(=O)n(Cc3ccco3)c(COc3ccccc3)nc21"
property_label = "inhibition"
data_value = "38.4% (active)"

[[record]]
compound = "O=C(C1=C(O)C(=O)N(c2ncccn2)C1c1cccs1)c1ccco1 (configuration not stated)"
property_label = "inhibition"
data_value = "59.5% (active)"

[[record]]
compound = "CCCn1c(C2CCCN2c2nc(-c3ccc(C)cc3)cs2)nc2cc(Cl)c(N3CCCCC3)cc21 (configuration not stated)"
property_label = "inhibition"
data_value = "4.86% (inactive)"

[[record]]
compound = "CCCn1c(O)c(CN2CCCC(C)C2)c(C)c(C#N)c1=O (configuration not stated)"
property_label = "inhibition"
data_value = "36.2% (active)"

[[record]]
compound = "Cc1nn(C(=O)c2ccoc2C)c(N)c1-c1ccccc1"
property_label = "inhibition"
data_value = "1.59% (inactive)"

[[record]]
compound = "COc1ccc(Nc2nc(-c3cccnc3)nc3ccccc23)cn1"
property_label = "inhibition"
data_value = "90.3% (active)"

[[record]]
compound = "COC(=O)[C@H]1[C@H]2C[C@H]3c4[nH]c5ccccc5c4CCN3C[C@@H]2CC[C@@H]1O"
property_label = "inhibition"
data_value = "88.6% (active)"

[[record]]
compound = "Oc1ccc2ccccc2c1N=Nc1nccs1"
property_label = "inhibition"
data_value = "-28.4% (inactive)"

[[record]]
compound = "CC[C@]1(O)C[C@@H]2CN(CCc3c([nH]c4ccccc34)[C@@](C(=O)OC)(c3cc4c(cc3OC)N(C)[C@H]3[C@@](O)(C(=O)OC)[C@H](OC(C)=O)[C@]5(CC)C=CCN6CC[C@]43[C@@H]65)C2)C1"
property_label = "inhibition"
data_value = "27.1% (inactive)"

[[record]]
compound = "Cc1ccc(C(=O)NC(=S)Nc2ccc(N3CCOCC3)cc2)cc1"
property_label = "inhibition"
data_value = "8.63% (inactive)"

[[record]]
compound = "COCCn1c(N)c(NCc2ccccc2)c(=O)[nH]c1=O"
property_label = "inhibition"
data_value = "37.1% (active)"

[[record]]
compound = "COc1ncnc2c1N=C1CC(C)(C)CC(N)=C1S2"
property_label = "inhibition"
data_value = "144% (active)"

[[record]]
compound = "CSc1c(SCc2ccccc2)cnn(Cc2ccccc2)c1=O"
property_label = "inhibition"
data_value = "-5.91% (inactive)"

[[record]]
compound = "Cc1ccc(/C=N/NC(=O)COc2ccccc2-c2ccccc2)cc1"
property_label = "inhibition"
data_value = "-0.45% (inactive)"

[[record]]
compound = "CCN1CC=C2C(C#N)=C(N)C(C#N)(C#N)[C@H](c3ccoc3)[C@H]2C1"
property_label = "inhibition"
data_value = "97.5% (active)"

[[record]]
compound = "COC/C=C/C1=CC2=CC(=O)C(C)(OC(=O)CCC(=O)OC)C(=O)C2=CO1 (configuration not stated)"
property_label = "inhibition"
data_value = "43.5% (active)"

[[record]]
compound = "COc1cc([C@H](Cc2ccccc2)NC(C)=O)oc(=O)c1"
property_label = "inhibition"
data_value = "37.8% (active)"

[[record]]
compound = "Cc1nn(Cc2ccccc2)c(C)c1CNC(=O)c1ccc(F)c(S(=O)(=O)N2CCOCC2)c1"
property_label = "inhibition"
data_value = "9.04% (inactive)"

[[record]]
compound = "O=c1[nH]c(=S)[nH]c2[nH]c(=S)[nH]c12"
property_label = "inhibition"
data_value = "42.2% (active)"

[[record]]
compound = "O=C1c2ccccc2C(=O)c2c1cccc2N1CCN(CCO)CC1"
property_label = "inhibition"
data_value = "43.9% (active)"

[[record]]
compound = "Brc1ccc(C2=CC(c3ccco3)n3ncnc3N2)cc1 (configuration not stated)"
property_label = "inhibition"
data_value = "52.9% (active)"

[[record]]
compound = "COc1ccc(C2C=C(c3ccc(Br)cc3)Nc3nc(NS(C)(=O)=O)nn32)cc1 (configuration not stated)"
property_label = "inhibition"
data_value = "133% (active)"

[[record]]
compound = "O=C(COC(=O)c1ccccc1C(=O)N1CCN(c2ccccc2)CC1)NCc1ccccc1"
property_label = "inhibition"
data_value = "22.1% (inactive)"

[[record]]
compound = "O=C(C[n+]1cc(Br)cc2ccccc21)c1ccc(F)cc1"
property_label = "inhibition"
data_value = "23% (inactive)"

[[record]]
compound = "Cc1nnc(NC(=O)/C=C/c2ccco2)s1"
property_label = "inhibition"
data_value = "11.6% (inactive)"

[[record]]
compound = "Cc1cccn2c(=O)c3cc(C(=O)NCCN4CCOCC4)c(=N)n(Cc4cccnc4)c3nc12"
property_label = "inhibition"
data_value = "55.8% (active)"

[[record]]
compound = "C=CCNc1nnc(SCC(=O)N2CCCCC2)c2ccccc12"
property_label = "inhibition"
data_value = "55.6% (active)"

[[record]]
compound = "Cc1ccc(S(=O)(=O)C(C#N)c2nc3ccccc3nc2N2CCCC2)cc1C (configuration not stated)"
property_label = "inhibition"
data_value = "74.9% (active)"

